target: CDC25A (Homo sapiens); construct: Recombinant forms of the catalytic domains of CDC25A, -B and -C were obtained through the vectors pET28a-CDC25A-cd, pET28a-CDC25B-cd and pET28a-CDC25C-cd; made in house; assay: Ki from OMFP hydrolysis kinetics (Lineweaver-Burk), CDC25A; assay type: biochemical; conditions: 20 nM CDC25A, 1–25 μM OMFP; mean ± S.E.; read-out: Ki CDC25A
Sequence (P30304 376-482 limits assumed): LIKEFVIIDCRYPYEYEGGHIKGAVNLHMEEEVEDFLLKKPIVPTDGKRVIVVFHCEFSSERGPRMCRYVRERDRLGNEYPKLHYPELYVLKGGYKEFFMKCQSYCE
experimental readout: Ki

INSERT INTO measurements (molecule, assay_system, experimental_result) VALUES
  ('O=C(O)C1C(c2c3ccc(=O)c(O)c-3oc3c(O)c(O)ccc23)C2(Cl)C(Cl)=C(Cl)C1(Cl)C2(Cl)Cl (stereo not drawn)', 'CDC25A (Homo sapiens)', '400 nM'),
  ('O=C(O)/C=C/c1c2ccc(=O)c(O)c-2oc2c(O)c(O)ccc12', 'CDC25A (Homo sapiens)', '100 nM'),
  ('O=C(O)C1CCCCC1c1c2ccc(=O)cc-2oc2cc(O)ccc12 (stereo not drawn)', 'CDC25A (Homo sapiens)', '650 nM'),
  ('O=C(O)C=Cc1c2ccc(=O)cc-2oc2cc(O)ccc12', 'CDC25A (Homo sapiens)', '380 nM'),
  ('O=c1cc2oc3cc(O)c(O)cc3c(-c3ccccc3)c-2cc1O', 'CDC25A (Homo sapiens)', '800 nM'),
  ('O=C(O)c1c2ccc(=O)cc-2oc2cc(O)ccc12', 'CDC25A (Homo sapiens)', '280 nM');
